Test: log P by HPLC on reversed-phase C18 columns (OECD Guideline 117); method [a] acidic pH 2.7, method [b] neutral pH 7.8
Assay type: physicochemical
Conditions: reversed-phase C18 HPLC column; HPLC reversed-phase C18, method [a] acidic pH 2.7; read-out: logP[a]
value kind: chromatographic logP

Cc1cc(C)c([S+]([O-])CC(F)(F)F)cc1-n1cnc2nc(-c3cncnc3)sc2c1=O (centres unmarked) [Compound 77]: 1.84
Cc1cc(F)c(-n2cnc3nc(-c4ccc[n+]([O-])c4)sc3c2=O)cc1[S+]([O-])CC(F)(F)F (centres unmarked) [Compound 23]: 1.49
O=c1c2sc(-c3cccnc3)nc2ncn1-c1ccc([S+]([O-])C(F)(F)F)cc1 (centres unmarked) [Compound 63]: 2.03
Cc1cc(F)c(-n2cnc3nc(-c4cccnc4)sc3c2=O)cc1[S+]([O-])CC(=O)N(C)C (centres unmarked) [Compound 55]: 1.38
Cc1nc(Cn2cnc3nc(-c4cccnc4)sc3c2=O)cs1 [Compound 38]: 1.36
O=c1c2sc(-c3cccnc3)nc2ncn1CC1CC1 [Compound 39]: 1.53

Would you be so kind as to report chromatographic logP for each listed record?
1. COc1cccc(-n2cnc3nc(-c4cccnc4)sc3c2=O)c1 [Compound 10]
2. Cc1cc(F)c(-n2c(C)nc3nc(-c4cccnc4)sc3c2=O)cc1[S+]([O-])CC(F)(F)F (centres unmarked) [Compound 57]

Given back:
[1.73, 2.25]

* * *

Please provide measured logP[a] for the entries that follow.
Assay: log P by HPLC on reversed-phase C18 columns (OECD Guideline 117); method [a] acidic pH 2.7, method [b] neutral pH 7.8
Assay type: physicochemical
Settings: HPLC reversed-phase C18, method [a] acidic pH 2.7
Numbers only.

CC(c1ncnn1C)n1cnc2nc(-c3cccnc3)sc2c1=O (stereo not drawn) [Compound 86]: 1.01

Record logP[a] for all entries; do not skip any.
1. CCSc1cccc(-n2cnc3nc(-c4cccnc4)sc3c2=O)c1 [Compound 19]
2. Cc1ccc(-n2cnc3nc(-c4cccnc4)sc3c2=O)cc1SCC(F)(F)F [Compound 47]
3. Cc1ccc(-n2cnc3nc(-c4cccnc4)sc3c2=O)cc1[S+](C)[O-] (stereo not drawn) [Compound 16]
4. O=c1c2sc(-c3cccnc3)nc2ncn1-c1cc(SCC2CC2)ccc1F [Compound 44]
5. Cc1ccc(-n2cnc3nc(-c4cccnc4)sc3c2=O)cc1 [Compound 11]

Given back:
1. 2.39
2. 2.73
3. 1.25
4. 2.91
5. 1.92

List logP[a] for every entry below, keeping the order given.
1. CC(C)CSc1cccc(-n2cnc3nc(-c4cccnc4)sc3c2=O)c1 [Compound 26]
2. O=c1c2sc(-c3cccnc3)nc2ncn1-c1cc(SCC(F)(F)F)ccc1F [Compound 46]
3. CC(C)[S+]([O-])c1cccc(-n2cnc3nc(-c4cccnc4)sc3c2=O)c1 (stereo not drawn) [Compound 25]

Given back:
3.18
2.60
1.39

* * *

Experiment: log P by HPLC on reversed-phase C18 columns (OECD Guideline 117); method [a] acidic pH 2.7, method [b] neutral pH 7.8
Format: physicochemical
Conditions: reversed-phase C18 HPLC column; HPLC reversed-phase C18, method [b] neutral pH 7.8; read-out: logP[b]
# if measured chromatographic logP < 2: T  # else: F

Past entries and their recorded results:
O=c1c2sc(-c3cccnc3)nc2ncn1-c1ccccc1SCC(F)(F)F [Compound 68]: F
O=c1c2sc(-c3cccnc3)nc2ncn1CC1CC1 [Compound 39]: T
CN(C)S(=O)(=O)c1cccc(-n2cnc3nc(-c4cccnc4)sc3c2=O)c1 [Compound 42]: T
O=c1c2sc(-c3cccnc3)nc2ncn1-c1ccc(SC(F)(F)F)cc1 [Compound 62]: F

Asked: Determine if Cc1cc(F)c(-n2cnc3nc(-c4cccnc4)sc3c2=O)cc1SCC(F)(F)F [Compound 21] shows chromatographic logP strictly lower than 2.
Given back: F

Asked: Please indicate whether the reported chromatographic logP of COc1cccc(-n2cnc3nc(-c4cccnc4)sc3c2=O)c1 [Compound 10] is strictly below 2.
Given back: T

Asked: Is chromatographic logP of Cc1cc(F)c(-n2c(C)nc3nc(-c4cccnc4)sc3c2=O)cc1SCC(F)(F)F [Compound 56] strictly below 2?
Given back: F

Asked: Strictly below 2: is that where chromatographic logP of Cc1cc(F)c(-n2cnc3nc(-c4cccnc4)sc3c2=O)cc1SCC(=O)N(C)C [Compound 54] sits?
Given back: T

Asked: Input Cc1cc(F)c(-n2cnc3nc(-c4cccnc4)sc3c2=O)cc1[S+]([O-])CC(=O)N(C)C (centres unmarked) [Compound 55] ; condition: chromatographic logP strictly below 2. Does it hold?
Given back: T
